Hi there, I'd appreciate the recorded pIC50 for every entry that follows.
system_tested: T1, monomeric monkey CD48 expressed with a tag consisting of 2 myc and one 6-His epitopes (monkey)
T1 construct: also called mfCD48-mmH; Monomeric monkey CD48-mmH
T1 chain: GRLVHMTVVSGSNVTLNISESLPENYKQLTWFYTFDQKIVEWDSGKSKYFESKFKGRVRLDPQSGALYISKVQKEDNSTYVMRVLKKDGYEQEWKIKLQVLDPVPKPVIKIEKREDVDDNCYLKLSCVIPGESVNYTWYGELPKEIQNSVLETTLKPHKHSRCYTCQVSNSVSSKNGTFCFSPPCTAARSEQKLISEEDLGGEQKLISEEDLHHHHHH
assay_method_text: competition ELISA; blocks mfCD48-mmH binding to coated h2B4-mFc
Scale note: pIC50 = -log10(concentration in M).

Prompt: What does the data say about its pIC50? Entry: H4H1778P (antibody, human IgG4, V domains shown, Human IgG4 Fc (H4H)) VH: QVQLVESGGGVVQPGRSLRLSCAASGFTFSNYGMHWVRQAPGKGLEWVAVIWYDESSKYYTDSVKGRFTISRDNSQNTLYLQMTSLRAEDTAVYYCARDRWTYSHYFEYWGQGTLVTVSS VL: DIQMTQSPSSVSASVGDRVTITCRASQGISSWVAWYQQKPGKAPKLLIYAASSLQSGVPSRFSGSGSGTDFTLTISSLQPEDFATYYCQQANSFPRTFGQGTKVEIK
Response: 11.08

Prompt: What does the data say about its pIC50? Entry: H4H1713N (antibody, human IgG4, V domains shown, Human IgG4 Fc (H4H) form of 1713N) VH: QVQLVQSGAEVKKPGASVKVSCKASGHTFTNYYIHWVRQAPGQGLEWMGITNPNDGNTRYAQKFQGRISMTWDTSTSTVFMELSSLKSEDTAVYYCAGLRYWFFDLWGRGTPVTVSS VL: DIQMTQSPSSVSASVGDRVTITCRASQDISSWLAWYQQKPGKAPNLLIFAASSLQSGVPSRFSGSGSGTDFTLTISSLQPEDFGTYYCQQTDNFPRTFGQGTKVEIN
Response: 11.47

Prompt: What does the data say about its pIC50? Entry: H4H1772P (antibody, human IgG4, V domains shown, Human IgG4 Fc (H4H)) VH: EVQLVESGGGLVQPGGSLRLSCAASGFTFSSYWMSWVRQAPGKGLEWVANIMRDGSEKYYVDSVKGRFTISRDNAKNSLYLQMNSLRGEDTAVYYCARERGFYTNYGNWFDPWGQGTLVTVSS VL: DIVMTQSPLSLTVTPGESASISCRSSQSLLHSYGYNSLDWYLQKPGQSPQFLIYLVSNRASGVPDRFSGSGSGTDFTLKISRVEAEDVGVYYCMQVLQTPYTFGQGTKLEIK
Response: 11.36
